B1: Pistol ribozyme (parent)
chain: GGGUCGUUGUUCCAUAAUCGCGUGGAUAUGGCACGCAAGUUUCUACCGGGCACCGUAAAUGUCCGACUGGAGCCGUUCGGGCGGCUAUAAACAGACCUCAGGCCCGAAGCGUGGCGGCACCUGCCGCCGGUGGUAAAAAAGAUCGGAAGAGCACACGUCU

variants of: B1; experiment: aptazyme ON/OFF ratio, guanine; higher = stronger switching; co-transcriptional cleavage with and without guanine
aptazyme ON/OFF ratio reference
endpoint-label: aptazyme ON/OFF ratio

INSERT INTO results (mutation_code, measured_number) VALUES
  ('U8G G9C U10C U11C', 1.04),
  ('U7C U8G G9C U11A C12U', 1.28),
  ('U7C G9C U10G C12G C13U', 1.1),
  ('U7A U8C G9A U11A C12G C13A', 1.11),
  ('U7C U8A U10A U11C C12G', 1.13),
  ('U7A U8A G9U U10C U11C C12U', 1.02),
  ('U8G G9C U10A C13U', 1.09),
  ('U8A G9C U10A U11A C12U C13U', 1.17),
  ('G9C U10G U11G C13U', 1.13),
  ('U7G U8A G9U U10C U11A C12U', 1.11),
  ('U7A U8A G9A U10C U11G C13A', 1.08),
  ('U7G U8G U10C U11A C12U C13A', 1.37);
